Collected half-life at 10 μM values appear next to each entry.
Experiment: Stability/conversion of esters in rat liver S9
Format: in vitro ADME
Conditions: liver S9, pH 7.4, read-out: T1/2 Rat Liver S9
Counter-ions that a name gives are not always drawn.
# number only, unit min dropped from output

Answered examples (7):
# MOLECULE, ENDPOINT_LABEL, RESULT
rows = [
    ("CCOC(=O)C(F)(F)ON1C(=O)N2C[C@H]1C(C)=C[C@H]2C(N)=O", "half-life at 10 μM", 0.7),
    ("CCOC(=O)[C@H](F)ON1C(=O)N2C[C@H]1C=C(C)[C@H]2C(=O)NOC[C@@H]1CCCN1 [Example 60, TFA salt]", "half-life at 10 μM", 10),
    ("CC1=C[C@@H]2CN(C(=O)N2O[C@H](F)C(=O)OC(C)C)[C@@H]1C(N)=O", "half-life at 10 μM", 14),
    ("CCOC(=O)[C@H](F)ON1C(=O)N2C[C@H]1C=C(C)[C@H]2C(=O)NCO", "half-life at 10 μM", 3.8),
    ("CC1=C[C@@H]2CN(C(=O)N2O[C@H](F)C(=O)OC(C(C)C)C(C)C)[C@@H]1C(N)=O", "half-life at 10 μM", 1.5),
    ("CCOC(=O)[C@@H](F)ON1C(=O)N2C[C@H]1C=C(C)[C@H]2C(=O)NCO", "half-life at 10 μM", 23),
    ("C=CCOC(=O)[C@@H](F)ON1C(=O)N2C[C@H]1C=C(C)[C@H]2C(N)=O", "half-life at 10 μM", 1.8),
]

Using the record for "CCOC(=O)C(F)(F)ON1C(=O)N2C[C@H]1C=C(C)[C@H]2C(N)=O" , report its half-life at 10 μM.
0.5

Data origin, for the record: patent US10800778B2
